measurement target: T1, PmrAC (C-terminal effector/DNA-binding domain of PmrA) (Klebsiella pneumoniae, UniProt W9BNR5 121-223)
T1 sequence: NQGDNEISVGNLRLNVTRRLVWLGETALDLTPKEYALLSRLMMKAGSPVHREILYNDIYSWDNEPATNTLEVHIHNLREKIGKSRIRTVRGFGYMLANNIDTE
procedure text: fluorescence polarization; 20 mM sodium phosphate, 30 mM NaCl, pH 6.0; FP with 12 nM 6-FAM DNA (temperature not stated); ITC plus 0.5 mM EDTA at 25 C; NMR at 298 K
condition info: protein: recombinant; tags: N-terminal extra Met; chain copies: 2; label: 5' 6-FAM (fluorescence polarization); none (NMR); blunt
quantity: pKd
Numbers only, as −log10 of the molar value.

box1b (dsDNA) DNA 1: ATTATCCTAAGCAAGG DNA 2: CCTTGCTTAGGATAAT ... 5.03

// switching to the query binder
Problem: Any idea what pKd was measured for box1a (dsDNA) DNA 1: AATTTCTTAATATTAT DNA 2: ATAATATTAAGAAATT ?
Solution: 6.89

Where do these numbers come from? They come from paper PMC3973317.
